B1: HDV Ribozyme (parent)
chain: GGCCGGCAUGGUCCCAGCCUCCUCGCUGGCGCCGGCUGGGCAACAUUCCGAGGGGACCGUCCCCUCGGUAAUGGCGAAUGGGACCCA

Variants of: B1
Test: self-cleavage, relative activity (ratio to wild type); higher = more cleavage; co-transcriptional
For each of the variants below, state its self-cleavage.
Enter the number alone.

Return value of self-cleavage for input `UGCCGGCAUGGUCCCAGCCUCCUCGCUGGCGCCGGCUGGGCAACAUUCCGACGGGACCGUCCCCUCGGUAAUGGCGAAUGGGACCCA` , no commentary.
0.332

Give reported self-cleavage value for `GGCCGGCAUGAUCCCAGCCUCCUCGCUGGCGCCGGCUGGGCAACAUUCCGAGGGGACCGUCCUCUCGGUAAUGGCGAAUGGGACCCA`
0.376

Assign self-cleavage to the following record: `GGCCGGCAUUGUCCCAGCCUCCUCGCUGGCGCCGGCUGGGCAAGAUUCCGAGGGGACCGUCCCCUCGGUAAUGGCGAAUGGGACCCA`
0.296
